# PROTOCOL_DETAILS: in vivo
# CONDITION_DESCRIPTION: rat, iv, 24.3 nmol/kg
Ends that are not written are not given here.
RECORDED_ENDPOINT: AUC(0-t) (µM·h)
Give the value in µM·h but do not write µM·h after it.

For AVAEIQLMHQRAKWIQDARRRAFLHKLIAEIHTAEI-OH [SP-PTH-AAK] , what is its reported AUC(0-t)?
0.0187
